system: cell growth; test: In vitro dose-response studies on individual components of antineoplaston therapy (cell growth); format: cell-based; conditions: Homo sapiens; free compound; cell line not stated (uptake example in BT-20); read-out: IC50 (antineoplastic activity)
pIC50: −log10 of the molar value.
Form field: pIC50 (one value per entry).

1) O=C(O)Cc1ccccc1 [PN, phenylacetate]
~1.82

Now look at this entry.
Note pIC50 for the molecule shown: O=C1CCC(NC(=O)Cc2ccccc2)C(=O)N1 (centres unmarked) [CN] ~3.10
